Provenance of the data: patent US20250320215A1

assay: Solubility estimates by aliquot addition method in various solvents; type: physicochemical; details: acetone, organic solvent or mixture, thermodynamic from solid; read-out: Solubility at RT
Reported Metric: solubility

Cc1n[nH]c2nc(-c3ccc(NS(=O)(=O)c4cc(F)ccc4F)c(F)c3)nc(NCCN(C)C)c12: < 1000 µg/mL

* * *

test: Solubility estimates by aliquot addition method in various solvents; assay type: physicochemical; settings: EtOH, organic solvent or mixture, thermodynamic from solid; read-out: Solubility at RT
Reported Metric: solubility

Cc1n[nH]c2nc(-c3ccc(NS(=O)(=O)c4cc(F)ccc4F)c(F)c3)nc(NCCN(C)C)c12 [Compound 1]: < 2000 µg/mL

* * *

Test: Estimated solubility by solvent addition method via visual assessment
Type: physicochemical
Settings: organic solvent or mixture, thermodynamic from solid; MeOH/Water (9/1), RT; read-out: Solubility, Concentration
Method: Solubility of Compound 3 Form B was estimated in 30 solvents at room temperature and in 9 organic solvents at 70° C. using solvent addition method via visual assessment. Protocol: about 3 mg of Compound 3 Form B was weighed into a sample vial and the solvent was added gradually with vortex until the drug solution was clear by observation or a total of 2 mL solvent was added. Then, the estimated solubility (mg/mL) was calculated. […]
Reported Metric: solubility

Cc1n[nH]c2nc(-c3ccc(NS(=O)(=O)c4cc(F)ccc4F)c(F)c3)nc(NCCN(C)C)c12.Cl [Compound 3 Form B]: 2500 to 3000 µg/mL

* * *

test: Solubility estimates by aliquot addition method in various solvents; type: physicochemical; conditions: acetone, 50 °C, organic solvent or mixture, thermodynamic from solid; read-out: Solubility at 50° C.
Reported Metric: solubility

Cc1n[nH]c2nc(-c3ccc(NS(=O)(=O)c4cc(F)ccc4F)c(F)c3)nc(NCCN(C)C)c12 [Compound 1]: < 1000 µg/mL

* * *

assay: Estimated solubility by solvent addition method via visual assessment; type: physicochemical; details: organic solvent or mixture, thermodynamic from solid; DMA, room temperature; read-out: Solubility
Reported Metric: solubility

Cc1n[nH]c2nc(-c3ccc(NS(=O)(=O)c4cc(F)ccc4F)c(F)c3)nc(NCCN(C)C)c12 [Compound 4 Form B]: 75 to 150 mg/mL

* * *

Assay: Estimated solubility by solvent addition method via visual assessment
Format: physicochemical
Details: organic solvent or mixture, thermodynamic from solid; DMSO, room temperature; read-out: Solubility
Procedure: Solubility of Compound 3 Form B was estimated in 30 solvents at room temperature and in 9 organic solvents at 70° C. using solvent addition method via visual assessment. Protocol: about 3 mg of Compound 3 Form B was weighed into a sample vial and the solvent was added gradually with vortex until the drug solution was clear by observation or a total of 2 mL solvent was added. Then, the estimated solubility (mg/mL) was calculated. […]
Reported Metric: solubility

Cc1n[nH]c2nc(-c3ccc(NS(=O)(=O)c4cc(F)ccc4F)c(F)c3)nc(NCCN(C)C)c12 [Compound 4 Form B]: > 150 mg/mL

* * *

test: Estimated solubility by solvent addition method via visual assessment; type: physicochemical; details: organic solvent or mixture, thermodynamic from solid; DMA, RT; read-out: Solubility, Concentration
Reported Metric: solubility

Cc1n[nH]c2nc(-c3ccc(NS(=O)(=O)c4cc(F)ccc4F)c(F)c3)nc(NCCN(C)C)c12.Cl [Compound 3 Form B]: 3000 to 3300 µg/mL

* * *

test: Estimated solubility by solvent addition method via visual assessment; assay type: physicochemical; conditions: organic solvent or mixture, thermodynamic from solid; Acetic acid, 70° C.; read-out: Solubility, Concentration
Reported Metric: solubility

Cc1n[nH]c2nc(-c3ccc(NS(=O)(=O)c4cc(F)ccc4F)c(F)c3)nc(NCCN(C)C)c12.Cl [Compound 3 Form B]: < 1500 µg/mL
